# experiment.summary: Clinical study in healthy adult subjects: pharmacokinetics
# Format: in vivo, human
# reported.conditions: human, plasma, single oral dose 2 mg, mean (%CV), read-out: Vz/F
assay.endpoint: Vd/F (L)

{"columns": ["smiles.text", "measured.number"],
 "data": [
  ["C[C@H](Nc1ncnc2[nH]cnc12)c1cc2cccc(Cl)c2c(=O)n1-c1ccccc1", 57.9]
]}

###

# experiment.summary: Pharmacokinetics in BALB/c mice
# Type: in vivo, mouse
# reported.conditions: BALB/c, mouse, in vivo, iv, 10 mg/kg

{"columns": ["smiles.text", "half-life"],
 "data": [
  ["C[C@H](Nc1ncnc2[nH]cnc12)c1cc2cccc(Cl)c2c(=O)n1-c1ccccc1", "< 2 h"]
]}

###

# Test system: B cell
# experiment.summary: B cell proliferation
# Assay type: cell-based
pEC50: −log10 of the molar value.
Property: pEC50; scope: individual molecules
assay.endpoint: pEC50

{"columns": ["molecule", "assay.endpoint", "result"],
 "data": [
  ["Cc1cccc2cc([C@H](C)Nc3ncnc4[nH]cc(F)c34)n(C3CC3)c(=O)c12 [Compound 278]", "pEC50", "> 7.00"],
  ["Cc1cccc2cc(Cn3nc(-c4cccc(O)c4)c4c(N)ncnc43)n(-c3ccccc3OCCN3CCOCC3)c(=O)c12 [Compound 109]", "pEC50", "> 7.00"],
  ["Cc1cccc2cc(Cn3nc(-c4cc(O)cc(F)c4)c4c(N)ncnc43)n(-c3ccccc3OCCN3CCOCC3)c(=O)c12 [Compound 108]", "pEC50", "> 7.00"],
  ["Cc1cccc2cc(C(C)Nc3ncnc4[nH]cnc34)n(-c3cccc(F)c3)c(=O)c12 (stereo not drawn) [Compound 229]", "pEC50", "> 7.00"],
  ["COc1ccccc1-n1c(Cn2nc(I)c3c(N)ncnc32)cc2cccc(C)c2c1=O [Compound 70]", "pEC50", "> 6.00"],
  ["COc1cccc(-c2nn(Cc3cc4cccc(C)c4c(=O)n3-c3ccccc3C)c3ncnc(N)c23)c1 [Compound 106]", "pEC50", "> 6.00"],
  ["Cc1ccccc1-n1c(Cn2nc(-c3cn[nH]c3)c3c(N)ncnc32)cc2ccccc2c1=O [Compound 187]", "pEC50", "> 7.00"],
  ["Cc1cccc2cc(Cn3nc(-c4cc(O)cc(F)c4)c4c(N)ncnc43)n(C3CCC3)c(=O)c12 [Compound 115]", "pEC50", "> 7.00"],
  ["Cc1ccccc1-n1c(Cn2nc(-c3ccc(F)c(O)c3)c3c(N)ncnc32)cc2cccc(C)c2c1=O [Compound 12]", "pEC50", "> 7.00"],
  ["Cc1cccc2cc(C(C)Nc3ncnc4[nH]cnc34)n(-c3c(F)cccc3F)c(=O)c12 (stereo not drawn) [Compound 216]", "pEC50", "> 7.00"],
  ["Cc1cccc2cc(Cn3nc(C#C[C@@H](C)O)c4c(N)ncnc43)n(C3CC3)c(=O)c12 [Compound 100]", "pEC50", "> 6.00"],
  ["Cc1ccccc1-n1c(Cn2nc(-c3ccc(F)c(O)c3)c3c(N)ncnc32)cc2ccccc2c1=O [Compound 54]", "pEC50", "> 7.00"],
  ["Cc1cccc2cc(Cn3nc(-c4cn[nH]c4)c4c(N)ncnc43)n(-c3cccc(F)c3)c(=O)c12 [Compound 166]", "pEC50", "> 7.00"],
  ["Cc1ccccc1-n1c(Cn2nc(CC#N)c3c(N)ncnc32)cc2cccc(C)c2c1=O [Compound 312]", "pEC50", "> 6.00"],
  ["Cc1cccc2cc([C@H](C)Nc3ncnc4[nH]ccc34)n(-c3ccccc3)c(=O)c12 [Compound 247]", "pEC50", "> 7.00"]
]}

###

# experiment.summary: Clinical study in healthy adult subjects: pharmacokinetics
# Assay type: in vivo, human
# reported.conditions: human, plasma, single oral dose 30 mg, mean (%CV)

{"columns": ["compound", "measure.unit", "AUC(0-inf)"],
 "data": [
  ["C[C@H](Nc1ncnc2[nH]cnc12)c1cc2cccc(Cl)c2c(=O)n1-c1ccccc1 [Compound 292]", "ng·h/mL", 3400]
]}

###

# experiment.summary: Clinical study in healthy adult subjects: pharmacokinetics
# Assay type: in vivo, human
# reported.conditions: human, plasma, po, 5 mg, single oral dose 5 mg, mean (%CV), read-out: AUC(0-t)

{"columns": ["smiles.text", "measure.unit", "AUC(0-t)"],
 "data": [
  ["C[C@H](Nc1ncnc2[nH]cnc12)c1cc2cccc(Cl)c2c(=O)n1-c1ccccc1", "ng·h/mL", 735]
]}

###

# experiment.summary: Pharmacokinetics in cynomolgus monkeys
# Format: in vivo, monkey
# reported.conditions: monkey, in vivo; cynomolgus monkeys, PO 5 mg/kg suspension

{"columns": ["molecule", "AUC(0-t) [ng·h/mL]"],
 "data": [
  ["C[C@H](Nc1ncnc2[nH]cnc12)c1cc2cccc(Cl)c2c(=O)n1-c1ccccc1 [Compound 292]", 4600]
]}

###

# experiment.summary: Clinical study in healthy adult subjects: pharmacokinetics
# Type: in vivo, human
# reported.conditions: human, plasma, single oral dose 10 mg, mean (%CV), read-out: Vz/F

{"columns": ["compound", "Vd/F / L"],
 "data": [
  ["C[C@H](Nc1ncnc2[nH]cnc12)c1cc2cccc(Cl)c2c(=O)n1-c1ccccc1 [Compound 292]", 147]
]}

###

# experiment.summary: Pharmacokinetics in cynomolgus monkeys
# Assay type: in vivo, monkey
# reported.conditions: monkey, in vivo; cynomolgus monkeys, PO 5 mg/kg suspension

{"columns": ["smiles.text", "AUC(0-inf), ng·h/mL"],
 "data": [
  ["C[C@H](Nc1ncnc2[nH]cnc12)c1cc2cccc(Cl)c2c(=O)n1-c1ccccc1", 4680]
]}

###

# System: B cell
# experiment.summary: B cell proliferation
# Assay type: cell-based
Property: EC50; scope: individual compounds

{"columns": ["compound", "EC50"],
 "data": [
  ["Cc1cccc2cc(Cn3nc(I)c4c(N)ncnc43)n(-c3ccccc3O)c(=O)c12", "< 1000 nM"],
  ["Cc1ccccc1-n1c(Cn2nc(-c3ccc(F)cc3)c3c(N)ncnc32)cc2cccc(C)c2c1=O", "< 10000 nM"],
  ["Cc1cccc2cc(Cn3nc(-c4cccc(O)c4)c4c(N)ncnc43)n(C3CCCCC3)c(=O)c12", "< 1000 nM"],
  ["CC(=O)Nc1nc2ccc(-c3nn(Cc4cc5cccc(C)c5c(=O)n4-c4ccccc4C)c4ncnc(N)c34)cc2s1", "< 100 nM"],
  ["CCC(Nc1ncnc2[nH]cnc12)c1cc2cccc(C)c2c(=O)n1-c1ccccc1C (centres unmarked)", "< 100 nM"],
  ["Cc1cccc2cc(Cn3nc(-c4cccc(O)c4)c4c(N)ncnc43)n(-c3ccccc3O)c(=O)c12", "< 100 nM"],
  ["Cc1cccc2cc([C@H](C)Nc3ncnc4[nH]cnc34)n(C(C)C)c(=O)c12", "< 100 nM"],
  ["CNC(=O)Nc1nc2ccc(-c3nn(Cc4cc5cccc(C)c5c(=O)n4-c4ccccc4C)c4ncnc(N)c34)cc2s1", "< 100 nM"],
  ["Cc1cccc2cc(Cn3nc(-c4cccc(O)c4)c4c(N)ncnc43)n(-c3ccccc3C(C)C)c(=O)c12", "< 100 nM"],
  ["Nc1ncnc2c1c(-c1cc(O)cc(F)c1)nn2Cc1cc2cccc(F)c2c(=O)n1-c1ccccc1F", "< 100 nM"],
  ["Cc1cccnc1-n1c(Cn2nc(-c3ccc(Cl)c(O)c3)c3c(N)ncnc32)cc2cccc(C)c2c1=O", "< 100 nM"],
  ["Cc1cccc2cc([C@H](C)Nc3nc(Cl)ncc3Cl)n(-c3ccccc3)c(=O)c12", "< 100 nM"],
  ["Cc1cccc2cc(Cn3nc(-c4ccc(Cl)c(O)c4)c4c(N)ncnc43)n(C3CCCC3)c(=O)c12", "< 10000 nM"],
  ["Cc1cccc2cc(Cn3nc(C#C[C@@H](C)O)c4c(N)ncnc43)n(-c3ccccc3C(C)C)c(=O)c12", "< 100 nM"],
  ["CC(=O)Nc1nc2ccc(-c3nn(Cc4cc5ccccc5c(=O)n4-c4ccccc4C)c4ncnc(N)c34)cc2s1", "< 100 nM"],
  ["Cc1cccc2cc(Cn3nc(-c4cccc(O)c4)c4c(N)ncnc43)n(-c3ccccc3F)c(=O)c12", "< 1000 nM"],
  ["Cc1cccc2cc(Cn3nc(-c4ccc(O)cc4)c4c(N)ncnc43)n(-c3ccccc3F)c(=O)c12", "< 1000 nM"],
  ["Cc1ccccc1-n1c(Cn2nc(-c3cccc(Cl)c3)c3c(N)ncnc32)cc2cccc(C)c2c1=O", "< 10000 nM"],
  ["Cc1cccc2cc(C(C)Nc3ncnc4[nH]cnc34)n(C(C)C)c(=O)c12 (centres unmarked)", "< 100 nM"],
  ["Cc1ccccc1-n1c(Cn2nc(I)c3c(N)ncnc32)cc2cccc(F)c2c1=O", "< 1000 nM"]
]}
